ASSAY SYSTEM: Recombinant human his-tagged IGF 1R extracellular domain protein (human) (UniProt P08069)
ASSAY OVERVIEW: SPR, captured antibody, pH 7.4
Parameter koff: see the listing below.
# unit: s⁻¹ | format: bare number

// worked examples, koff included
>  <BINDER>
VRDN-03138 (antibody, V domains shown) VH: EVQLVESGGGVVQPGRSLRLSCAASGFTFDDYTMHWVRQAPGKGLEWVAVIWYDGSSKYYADSVKGRFTISRDNSKNTLYLQMNSLRAEDTAVYYCARELGRRYFDIWGQGTLVTVSS VL: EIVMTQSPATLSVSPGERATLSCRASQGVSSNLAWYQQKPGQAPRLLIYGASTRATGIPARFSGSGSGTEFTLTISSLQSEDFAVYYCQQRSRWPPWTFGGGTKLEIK

>  <koff [s⁻¹]>
0.00433

$$$$
>  <BINDER>
VRDN-03117 (antibody, V domains shown) VH: EVQLVESGGGVVQPGRSLRLSCAASGFTFSSYSMHWVRQAPGKGLEWVAIIWFDGSNKYYADSVKSRFTISRDNSKNTLYLQMNSLRAEDTAVYYCARELGRRYFDIWGQGTLVTVSS VL: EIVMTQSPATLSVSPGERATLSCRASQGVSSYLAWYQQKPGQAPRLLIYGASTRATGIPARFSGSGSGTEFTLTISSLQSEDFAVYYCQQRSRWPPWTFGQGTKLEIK

>  <koff [s⁻¹]>
0.00391

$$$$

Alright, here's another binder for you.
Input: Reported koff for VRDN-03116 (antibody, V domains shown) VH: EVQLVESGGGVVQPGRSLRLSCAASGFTFSDYTMHWVRQAPGKGLEWVAIIWFDGSSKYYPGSVKGRFTISRDNSKNTLYLQMNSLRAEDTAVYYCARELGRRYFDIWGRGTLVTVSS VL: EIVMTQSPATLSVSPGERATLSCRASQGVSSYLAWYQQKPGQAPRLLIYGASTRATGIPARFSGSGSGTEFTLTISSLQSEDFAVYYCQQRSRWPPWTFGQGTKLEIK : what is it?
Output: 0.00091
